Target: hERG channels (Homo sapiens (Human))
Sequence (Q12809 whole entry): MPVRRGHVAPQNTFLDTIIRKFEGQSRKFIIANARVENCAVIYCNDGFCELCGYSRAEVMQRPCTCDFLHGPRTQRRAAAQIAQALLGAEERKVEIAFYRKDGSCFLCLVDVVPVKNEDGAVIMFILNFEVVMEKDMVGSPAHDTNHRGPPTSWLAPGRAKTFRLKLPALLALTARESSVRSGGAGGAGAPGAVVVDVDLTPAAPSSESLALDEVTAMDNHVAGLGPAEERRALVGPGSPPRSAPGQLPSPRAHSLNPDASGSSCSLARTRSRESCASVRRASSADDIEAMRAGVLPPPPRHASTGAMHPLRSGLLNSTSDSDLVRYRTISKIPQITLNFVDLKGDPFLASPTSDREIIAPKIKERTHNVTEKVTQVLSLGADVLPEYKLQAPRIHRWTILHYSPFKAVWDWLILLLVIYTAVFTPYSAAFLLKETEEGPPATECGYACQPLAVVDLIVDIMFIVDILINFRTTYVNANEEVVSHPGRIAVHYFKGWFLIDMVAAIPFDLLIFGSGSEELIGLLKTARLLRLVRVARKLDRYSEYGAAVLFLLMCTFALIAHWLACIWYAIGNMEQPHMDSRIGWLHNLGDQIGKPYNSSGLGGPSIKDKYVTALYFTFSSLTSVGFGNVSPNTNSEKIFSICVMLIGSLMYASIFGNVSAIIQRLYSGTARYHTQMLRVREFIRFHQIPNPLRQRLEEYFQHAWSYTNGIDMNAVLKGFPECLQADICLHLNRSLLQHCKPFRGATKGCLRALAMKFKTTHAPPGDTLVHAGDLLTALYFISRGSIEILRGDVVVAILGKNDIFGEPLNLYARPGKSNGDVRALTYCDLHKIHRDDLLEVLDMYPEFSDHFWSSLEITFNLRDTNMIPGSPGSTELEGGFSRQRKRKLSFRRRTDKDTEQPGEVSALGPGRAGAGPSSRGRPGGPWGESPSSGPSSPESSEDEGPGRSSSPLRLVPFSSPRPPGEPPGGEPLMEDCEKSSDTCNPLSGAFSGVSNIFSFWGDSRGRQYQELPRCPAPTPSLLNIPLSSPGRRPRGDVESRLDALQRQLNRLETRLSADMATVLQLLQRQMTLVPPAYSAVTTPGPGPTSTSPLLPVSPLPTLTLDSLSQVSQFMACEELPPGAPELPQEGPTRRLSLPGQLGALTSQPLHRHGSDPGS
Experiment: hERG electrophysiology assay (patch clamp)
Details: HEK 293 cells stably expressing hERG channels, tail current
assayMetric: pIC50
Lab note: report pIC50 as minus log10 of the concentration in molar units, number only.

Prompt: Hello, I am looking for reported pIC50 with hERG channels (Homo sapiens (Human)) for Cc1ccc(CN2OCC(N3CCN(c4ccc(O)cn4)CC3)C2=O)cc1 (single isomer, unassigned) . Could you help?
Completion: 4.52

----------
Molecular target: NR2B-subtype NMDA receptors (Rattus norvegicus (Rat), UniProt P35439+Q00960)
Sequence (Q00960 27-1482, other chains not shown): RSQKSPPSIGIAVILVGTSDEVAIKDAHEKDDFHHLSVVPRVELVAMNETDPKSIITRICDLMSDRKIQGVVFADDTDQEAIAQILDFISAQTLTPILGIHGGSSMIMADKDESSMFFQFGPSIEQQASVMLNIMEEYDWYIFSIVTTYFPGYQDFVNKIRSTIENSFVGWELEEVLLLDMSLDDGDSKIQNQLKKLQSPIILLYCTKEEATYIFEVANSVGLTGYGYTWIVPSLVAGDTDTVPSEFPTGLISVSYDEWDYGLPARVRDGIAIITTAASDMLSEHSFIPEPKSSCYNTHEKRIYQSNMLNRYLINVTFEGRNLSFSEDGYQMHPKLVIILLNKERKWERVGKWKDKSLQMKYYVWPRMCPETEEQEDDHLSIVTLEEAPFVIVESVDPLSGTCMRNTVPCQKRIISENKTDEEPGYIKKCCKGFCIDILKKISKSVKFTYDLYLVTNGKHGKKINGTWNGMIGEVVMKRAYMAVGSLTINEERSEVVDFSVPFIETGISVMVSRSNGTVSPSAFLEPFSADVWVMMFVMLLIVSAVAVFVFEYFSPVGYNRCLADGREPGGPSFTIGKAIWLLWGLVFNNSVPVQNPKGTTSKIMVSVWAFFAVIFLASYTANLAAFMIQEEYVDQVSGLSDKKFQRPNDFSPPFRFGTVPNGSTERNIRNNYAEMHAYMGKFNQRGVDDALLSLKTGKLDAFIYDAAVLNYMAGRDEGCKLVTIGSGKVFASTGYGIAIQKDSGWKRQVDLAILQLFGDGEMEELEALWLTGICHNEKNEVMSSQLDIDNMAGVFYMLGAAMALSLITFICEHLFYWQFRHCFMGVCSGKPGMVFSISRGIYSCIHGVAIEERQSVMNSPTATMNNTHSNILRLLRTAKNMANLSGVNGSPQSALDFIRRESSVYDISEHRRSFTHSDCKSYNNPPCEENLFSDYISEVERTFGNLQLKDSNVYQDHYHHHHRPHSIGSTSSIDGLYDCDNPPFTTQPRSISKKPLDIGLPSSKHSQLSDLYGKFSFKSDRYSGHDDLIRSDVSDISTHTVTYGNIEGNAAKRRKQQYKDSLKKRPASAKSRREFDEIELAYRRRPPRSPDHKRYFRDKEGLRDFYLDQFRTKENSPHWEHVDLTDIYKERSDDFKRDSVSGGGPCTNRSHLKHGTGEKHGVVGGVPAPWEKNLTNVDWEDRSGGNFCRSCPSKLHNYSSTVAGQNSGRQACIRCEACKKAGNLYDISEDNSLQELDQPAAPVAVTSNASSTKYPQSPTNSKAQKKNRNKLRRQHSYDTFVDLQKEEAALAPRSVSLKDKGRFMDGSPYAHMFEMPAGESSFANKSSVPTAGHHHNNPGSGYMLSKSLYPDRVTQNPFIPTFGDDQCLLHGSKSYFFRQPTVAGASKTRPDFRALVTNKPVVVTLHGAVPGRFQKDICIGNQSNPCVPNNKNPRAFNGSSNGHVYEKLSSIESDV
Experiment: Radioligand binding assay (3H Ro 25-6981 competition, rat forebrain membranes)
Settings: 3H Ro 25-6981 (4 nM), listed as 8, P-2, read-out: NR2B Binding Ki
assayMetric: pKi
Lab note: report pKi as minus log10 of the concentration in molar units, number only.

Prompt: I am curious: what pKi value has been reported for Cc1ccc(CN2OCCC(N3CCN(c4ccc(O)cn4)CC3)C2=O)cc1 (single isomer, unassigned) [Example 8, P-2] ?
Completion: 7.73

----------
Target: NR2B-subtype NMDA receptors (Rattus norvegicus (Rat), UniProt P35439+Q00960)
Test: Radioligand binding assay (3H Ro 25-6981 competition, rat forebrain membranes)
Conditions: 3H Ro 25-6981 (4 nM), listed as 13, P-1, read-out: NR2B Binding Ki
assayMetric: Ki (nM)
Report the value in nM with no unit label.

Prompt: I am curious: what Ki value has been reported for O=C1C(N2CCC(c3ccc(O)c(F)c3)C(F)C2)CCON1Cc1ccc(F)cc1 (single isomer, unassigned) ?
Completion: 367

----------
Biological target: NR2B-subtype NMDA receptors (Rattus norvegicus (Rat), UniProt P35439+Q00960)
Assay: Radioligand binding assay (3H Ro 25-6981 competition, rat forebrain membranes)
Conditions: 3H Ro 25-6981 (4 nM), listed as 7, P-1, read-out: NR2B Binding Ki
assayMetric: pKi
Lab note: report pKi as minus log10 of the concentration in molar units, number only.

Prompt: I am curious: what pKi value has been reported for Cc1ccc(CN2OCCC(N3CC[C@H](c4ccc(O)cc4)[C@@H](F)C3)C2=O)cc1 (single isomer, unassigned) [Example 7, P-1] ?
Completion: 6.90

----------
Target: NR2B-subtype NMDA receptors (Rattus norvegicus (Rat), UniProt P35439+Q00960)
Assay: Radioligand binding assay (3H Ro 25-6981 competition, rat forebrain membranes)
Settings: 3H Ro 25-6981 (4 nM), listed as 9, P-1, read-out: NR2B Binding Ki
Protocol: Radioligand Binding Assay. […] To perform the competition binding assay, thawed membrane homogenate was added to each well of a 96-well plate (20 μg/well). […] The filter plates were dried at 50° C. for 20 mins, incubated with microscint 20 for 10 minutes and finally, the counts were read on TopCount (Perkin Elmer).
assayMetric: Ki (nM)
Report the value in nM with no unit label.

Prompt: Hello, I am looking for reported Ki with NR2B-subtype NMDA receptors (Rattus norvegicus (Rat), UniProt P35439+Q00960) for Cc1ccc(CN2OCC(N3CCC(c4ccc(O)cn4)CC3)C2=O)cc1 (single isomer, unassigned) . Could you help?
Completion: 139

----------
Target: NR2B-subtype NMDA receptors (Rattus norvegicus (Rat), UniProt P35439+Q00960)
Test: Radioligand binding assay (3H Ro 25-6981 competition, rat forebrain membranes)
Conditions: 3H Ro 25-6981 (4 nM), listed as 12, P-1, read-out: NR2B Binding Ki
assayMetric: pKi
Lab note: report pKi as minus log10 of the concentration in molar units, number only.

Prompt: I am curious: what pKi value has been reported for O=C1C(N2CC[C@@H](c3ccc(O)cc3)[C@H](F)C2)CCON1Cc1ccc(Cl)cc1 (single isomer, unassigned) ?
Completion: 8.41

----------
Molecular target: NR2B-subtype NMDA receptors (Rattus norvegicus (Rat), UniProt P35439+Q00960)
Experiment: Radioligand binding assay (3H Ro 25-6981 competition, rat forebrain membranes)
Conditions: 3H Ro 25-6981 (4 nM), listed as 10, P-2, read-out: NR2B Binding Ki
assayMetric: pKi
Lab note: report pKi as minus log10 of the concentration in molar units, number only.

Prompt: I am curious: what pKi value has been reported for Cc1ccc(CN2OCC(N3CCN(c4ccc(O)cn4)CC3)C2=O)cc1 (single isomer, unassigned) ?
Completion: 7.97

----------
Biological target: NR2B-subtype NMDA receptors (Rattus norvegicus (Rat), UniProt P35439+Q00960)
Experiment: Radioligand binding assay (3H Ro 25-6981 competition, rat forebrain membranes)
Conditions: 3H Ro 25-6981 (4 nM), listed as 14, P-2, read-out: NR2B Binding Ki
Protocol: Radioligand Binding Assay. […] To perform the competition binding assay, thawed membrane homogenate was added to each well of a 96-well plate (20 μg/well). […] The filter plates were dried at 50° C. for 20 mins, incubated with microscint 20 for 10 minutes and finally, the counts were read on TopCount (Perkin Elmer).
assayMetric: pKi
Lab note: report pKi as minus log10 of the concentration in molar units, number only.

Prompt: I am curious: what pKi value has been reported for O=C1C(N2CCC(c3ccc(O)c(F)c3)C(F)C2)CCON1Cc1ccc(Cl)cc1 (single isomer, unassigned) ?
Completion: 8.55

----------
Target: NR2B-subtype NMDA receptors (Rattus norvegicus (Rat), UniProt P35439+Q00960)
Assay: Radioligand binding assay (3H Ro 25-6981 competition, rat forebrain membranes)
Conditions: 3H Ro 25-6981 (4 nM), listed as 5, P-2, read-out: NR2B Binding Ki
assayMetric: Ki (nM)
Report the value in nM with no unit label.

Prompt: Hello, I am looking for reported Ki with NR2B-subtype NMDA receptors (Rattus norvegicus (Rat), UniProt P35439+Q00960) for Cc1ccc(CN2OCCC(N3CC[C@@H](c4ccc(O)cc4)[C@H](F)C3)C2=O)cc1 (single isomer, unassigned) . Could you help?
Completion: 4.37

----------
Biological target: NR2B-subtype NMDA receptors (Rattus norvegicus (Rat), UniProt P35439+Q00960)
Experiment: Radioligand binding assay (3H Ro 25-6981 competition, rat forebrain membranes)
Settings: 3H Ro 25-6981 (4 nM), listed as 6, P-1, read-out: NR2B Binding Ki
assayMetric: Ki (nM)
Report the value in nM with no unit label.

Prompt: I am curious: what Ki value has been reported for Cc1ccc(CN2OCCC(N3CCC(c4ccc(O)cn4)CC3)C2=O)cc1 (single isomer, unassigned) [Example 6, P-1] ?
Completion: 6.53

----------
Biological target: NR2B-subtype NMDA receptors (Rattus norvegicus (Rat), UniProt P35439+Q00960)
Assay: Radioligand binding assay (3H Ro 25-6981 competition, rat forebrain membranes)
Details: 3H Ro 25-6981 (4 nM), listed as 11, P-1, read-out: NR2B Binding Ki
assayMetric: Ki (nM)
Report the value in nM with no unit label.

Prompt: I am curious: what Ki value has been reported for Cc1ccc(CN2OCCC(N3CCC(c4ccc(O)c(F)c4)C(F)C3)C2=O)cc1 (single isomer, unassigned) ?
Completion: 3.06

----------
Target: NR2B-subtype NMDA receptors (Rattus norvegicus (Rat), UniProt P35439+Q00960)
Assay: Radioligand binding assay (3H Ro 25-6981 competition, rat forebrain membranes)
Conditions: 3H Ro 25-6981 (4 nM), listed as 11, P-2, read-out: NR2B Binding Ki
assayMetric: pKi
Lab note: report pKi as minus log10 of the concentration in molar units, number only.

Prompt: I am curious: what pKi value has been reported for Cc1ccc(CN2OCCC(N3CCC(c4ccc(O)c(F)c4)C(F)C3)C2=O)cc1 (single isomer, unassigned) [Example 11, P-2] ?
Completion: 7.41
